Listing: pEC50 of selected compounds
study.target: human 5-HT2A receptor (Homo sapiens, UniProt P28223)
Sequence (P28223 whole entry): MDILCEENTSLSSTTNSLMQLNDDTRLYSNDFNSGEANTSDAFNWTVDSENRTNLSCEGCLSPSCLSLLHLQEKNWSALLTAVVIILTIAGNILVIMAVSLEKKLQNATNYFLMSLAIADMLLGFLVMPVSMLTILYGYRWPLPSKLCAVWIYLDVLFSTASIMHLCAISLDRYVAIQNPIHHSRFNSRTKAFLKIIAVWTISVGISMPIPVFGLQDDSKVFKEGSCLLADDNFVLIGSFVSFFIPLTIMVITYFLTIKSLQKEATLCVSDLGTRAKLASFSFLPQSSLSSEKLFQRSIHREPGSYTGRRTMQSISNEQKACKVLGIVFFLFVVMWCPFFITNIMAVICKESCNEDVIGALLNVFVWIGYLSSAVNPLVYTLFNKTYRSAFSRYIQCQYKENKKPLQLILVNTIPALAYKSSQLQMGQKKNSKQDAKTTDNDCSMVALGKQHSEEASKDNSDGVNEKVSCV
measurement.description: Calcium flux assay, 5-HT2A
protocol.conditions: 5-HT2A EC50, HEK-293; Table 2 section 1 (independent campaign); NA: Emax ≤ 12%
Notebook: values listed as pEC50 are -log10 of the concentration (mol/L).

Would you please look over these solved cases?
>>> observed("Cl.NC[C@@H]1C[C@H]1c1ccccc1Br (relative stereo)")
6.23
>>> observed("Cl.NC[C@H]1C[C@@H]1c1ccccc1Cl (relative stereo)")
6.39
>>> observed("Cl.NC[C@H]1C[C@@H]1c1ccc(F)cc1 (relative stereo)")
5.96

From here, focus on the item given below.
// query pEC50 value for entry Cl.NC[C@H]1C[C@@H]1c1cccc(F)c1 (relative stereo)
5.75

----------
study.target: human 5-HT2A receptor (Homo sapiens)
measurement.description: Calcium flux assay, 5-HT2A
protocol.conditions: read-out: 5-HT2A Emax, percent of maximal activation by 5-HT; Table 2 section 4
Measured Emax, listed per entry.
Form entry: value (%) — number only.

Some solved cases for reference:
>>> observed("Cl.NC[C@H]1C[C@@H]1c1ccc(F)cc1 (relative stereo)")
68
>>> observed("Cl.NC[C@H]1C[C@@H]1c1ccccc1F (relative stereo)")
62
>>> observed("Cl.NC[C@H]1C[C@@H]1c1cccc(F)c1 (relative stereo)")
73

What value of Emax has been recorded for this entry: C[C@H]1CNCCc2ccc(Cl)cc21 [compound 7, reference compound]
33

----------
# EC50 listing for each entry below
study.target: human 5-HT2B receptor (Homo sapiens, UniProt P41595)
Sequence (P41595 whole entry): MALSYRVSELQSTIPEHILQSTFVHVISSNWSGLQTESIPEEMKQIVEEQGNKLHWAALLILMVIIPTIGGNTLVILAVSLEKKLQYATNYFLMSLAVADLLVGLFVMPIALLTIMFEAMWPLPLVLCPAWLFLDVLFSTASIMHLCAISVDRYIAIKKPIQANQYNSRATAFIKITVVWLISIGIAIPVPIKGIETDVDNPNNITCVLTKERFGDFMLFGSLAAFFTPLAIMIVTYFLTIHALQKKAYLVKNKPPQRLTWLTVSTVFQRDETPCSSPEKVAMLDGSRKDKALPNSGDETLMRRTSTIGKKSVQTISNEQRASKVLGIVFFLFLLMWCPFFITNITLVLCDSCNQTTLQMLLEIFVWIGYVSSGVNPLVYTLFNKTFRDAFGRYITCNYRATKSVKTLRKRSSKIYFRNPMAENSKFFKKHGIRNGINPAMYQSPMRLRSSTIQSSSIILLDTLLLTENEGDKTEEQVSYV
measurement.description: Calcium flux assay, 5-HT2B
protocol.conditions: 5-HT2B EC50, HEK-293; Table 2 section 1; NA: Emax ≤ 12%
Express your answer as a number followed by its unit.

Example entries and their recorded answers appear below.
>>> observed("Cl.NC[C@H]1C[C@@H]1c1ccc(F)cc1 (relative stereo) [compound 41]")
"312 nM"
>>> observed("Cl.NC[C@H]1C[C@@H]1c1ccccc1F (relative stereo) [compound 27]")
"1550 nM"
>>> observed("Cl.NC[C@@H]1C[C@H]1c1ccccc1Br (relative stereo) [compound 29]")
"154 nM"
>>> observed("Cl.NC[C@H]1C[C@@H]1c1ccccc1Cl (relative stereo) [compound 28]")
"84 nM"

Now for a further molecule.
What EC50 value was documented for this molecule, Cl.NC[C@H]1C[C@@H]1c1cccc(F)c1 (relative stereo) [compound 34] ?
51 nM
